# protocol.text: endothelial E-selectin expression blockers – imaging, HUVEC, immunofluorescence, MLSMR starter and 10KST1 sets, primary screen (AID 487);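 further: signal is fraction of cell area covered by stained E-selectin grains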
# experimental.setup: HUVEC TNFalpha-induced E-selectin immunofluorescence imaging, at 2 µM; stronger effect = higher value
value.kind: inhibition (%)
Express it in %; write the number only.

Data request: In one line, give reported inhibition of the entry CCSc1nnc(NC(=O)CSc2nnc(Cc3cccn3C)n2-c2ccc(C)cc2)s1 .
Data returned: 16.8

Data request: For the compound COc1ccccc1NC(=O)CSc1nnc(Cc2cccn2C)n1-c1ccc(F)cc1 , report inhibition.
Data returned: -51.1

Data request: Fill in reported inhibition for this entry: CCc1nnc(NC(=O)CSc2nnc(-c3ccc(OC)cc3)n2C)s1
Data returned: 5.4

Data request: For the compound Cc1nc2ccccc2c2oc(C(=O)NCC3COc4ccccc4O3)cc12 (stereo unspecified) , report inhibition.
Data returned: 3.3

Data request: Give the measured inhibition for O=C(O)c1cccn2c(=O)c3ccccc3nc12
Data returned: -19.6

Here is the next item to consider.
Data request: Return the recorded inhibition value; entry: COc1ccc(CC(=O)Nc2c3c(nn2-c2cccc(Cl)c2)CS(=O)C3)cc1 (stereo unspecified)
Data returned: -43.1

* * *

# protocol.text: blockers of RIG-like receptor reporter activation – cell-based, Sendai virus stimulus, luciferase, 10K MLSCN set, TLR/RLR signaling modifier project, primary screen (AID 602276);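 further: firefly luciferase from ISG56 promoter only with Renilla not read in this screen; 0% = Sendai virus plus DMSO and 100% = medium plus DMSO without virus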
# experimental.setup: HEK293 RL24 IRF3 luciferase reporter, at 10 µM, stronger effect = higher value
// reported inhibition for each item listed
Unit % implied. Number only.

Data request: Indicate the recorded inhibition value for this compound: CCC(=O)Nc1c2c(nn1-c1ccccc1C)CSC2
Data returned: 14.2

Data request: Quick one: give measured inhibition for COc1cccc(NC(=O)N[C@@H](Cc2ccccc2)C(=O)O)c1
Data returned: 6.12

Data request: Respond only with inhibition recorded for COc1ccccc1NC(=O)Cn1nnc(-c2ccccc2NC(=O)c2ccco2)n1
Data returned: 16.8

Data request: Give inhibition for CCOC(=O)c1c(NC(=O)c2ccn(CC)n2)sc2c1CCCC2
Data returned: 3.28

Data request: Supply reported inhibition belonging to this compound: Cc1cccc(Cc2c(C)nc3nc(SCC(=O)NCc4ccco4)nn3c2C)c1
Data returned: 10.8

Data request: Hello, please tell me recorded inhibition for this one: CC1=C(n2nnc3ccccc32)C(c2ccccc2)C(C#N)=C(N)O1 (stereo not drawn)
Data returned: 17.5

Data request: Return value of inhibition for input N[C@@H](Cc1ccccc1)c1nnc2sc(SCc3ccccc3)nn12 , no commentary.
Data returned: 10.2

Data request: Using known records, supply inhibition for COc1ccc(N(CC(=O)NCCSC(C)(C)C)S(C)(=O)=O)c(OC)c1
Data returned: 18.9

Data request: Specify reported inhibition for the compound shown: O=C(CSc1nnc(-c2ccncc2)n1-c1ccc(F)cc1)NC(=O)NCc1ccco1
Data returned: 10.1

* * *

# protocol.text: TLR3 IRF3 reporter activation blockers – cell-based, poly I:C stimulus, luciferase, 10K MLSCN set, primary screen (AID 602277)
# experimental.setup: HEK293-TLR3 RL24 IRF3 luciferase reporter, at 10 µM, stronger effect = higher value
Below: a set of entries, each annotated with reported inhibition.
Field: numeric (%). Do not append units.

Illustrative cases are given below, each with its answer.
Data request: // fetch inhibition given entry NC(=O)CSc1nnc(-c2cc3ccccc3o2)n1Cc1ccccc1
Data returned: 18.4

Data request: Tell us which inhibition value is on record for CC(NS(=O)(=O)c1ccc(F)cc1)C(c1cccs1)N1CCN(C)CC1 (stereo unspecified)
Data returned: 33

***
Data request: Quickly give me recorded inhibition for Cc1cc(=O)[nH]c(=S)n1-c1ccccc1
Data returned: 23.5

Data request: // fetch inhibition given entry c1ccc(-n2cnc3cc(NCc4ccccn4)ccc32)cc1
Data returned: -8.3

Data request: Name the recorded inhibition of the molecule listed here: CN(CC(=O)N1CCCc2c1c(=O)oc1ccc(O)cc21)Cc1ccccc1
Data returned: 27.4

Data request: Read off the recorded inhibition for CC1(C)Cc2ccccc2C(N)=C1C#N
Data returned: -26.4

* * *

Quick reference: nuclei count of the listed items.
# protocol.text: reduction of polyQ htt aggregates in cells – imaging, exon1htt(103Q)mCFP cells, high-content imaging, primary screen (AID 483);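 further: compound exposure lasted 3 days before fixation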;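 on nuclei count: percent of the per-plate median nuclei count of sample wells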
# experimental.setup: exon1htt(103Q)mCFP cell line, aggregate imaging, at 2 µM; measured here: cell count, toxicity
Give the value in % but do not write % after it.

Data request: Note down nuclei count recorded for c1ccc(Cc2ccc(OCCn3cncn3)cc2)cc1
Data returned: 102

***
Data request: Tell us which nuclei count value is on record for O=C(Nn1cnnc1)C1Cc2ccccc2CN1S(=O)(=O)c1ccc(F)cc1 (stereo unspecified)
Data returned: 95.2

Data request: Recall and state the measured nuclei count for O=C(NCCC1=CCCCC1)N[C@@H](Cc1ccccc1)C(=O)O .
Data returned: 108

Data request: Fill in reported nuclei count for this entry: CC(=O)c1ccc(-n2nnnc2SCC(=O)N2CCc3ccccc3C2)cc1
Data returned: 104

Data request: Fill in reported nuclei count for this entry: COC(=O)c1ccc(Cl)c(NC(C)=O)c1
Data returned: 110

Data request: Complete the entry with nuclei count for O=C(Nc1ccc2c(c1)OCCO2)c1ccco1
Data returned: 118

* * *

# protocol.text: reduction of polyQ htt aggregates in cells – imaging, exon1htt(103Q)mCFP cells, high-content imaging, primary screen (AID 483);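 further: compound exposure lasted 3 days before fixation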
# experimental.setup: exon1htt(103Q)mCFP cell line, aggregate imaging, at 2 µM; stronger effect = higher value
value.kind: inhibition of aggregation (%)
Respond with the bare value in %.

Answered examples (5):
Data request: Respond only with inhibition of aggregation recorded for CC(C)(C)NC(=O)CN(C(=O)CS(=O)CC(=O)Nc1ccc(F)cc1)c1ccc(Cl)cc1 (stereo unspecified)
Data returned: 3.2

Data request: Please give the documented inhibition of aggregation of COc1ccc(-c2nnc(-c3ccc(N)cc3)o2)cc1
Data returned: 9.6

Data request: Give a short answer stating reported inhibition of aggregation for C/C(N)=C(/C#N)C(=O)CSc1nnc(Nc2c(C)cccc2C)s1 .
Data returned: 8.1

Data request: Given the molecule CCCn1c(OC)nc2c1c(=O)n(C)c(=O)n2C , write its reported inhibition of aggregation.
Data returned: 2.9

Data request: Output measured inhibition of aggregation for this item: CCOC(=O)N1CCN(C(=O)c2n[nH]c(=O)c3ccccc23)CC1
Data returned: -7.2

Further cases:
Data request: Provide measured inhibition of aggregation value, entry: CCCCn1c(NCCC)nc2c1c(=O)[nH]c(=O)n2C
Data returned: -0.7

Data request: Give reported inhibition of aggregation value for CCCCCn1c(N2CCN(Cc3ccccc3)CC2)nc2c1c(=O)[nH]c(=O)n2C
Data returned: -11.5

* * *

# protocol.text: inhibitors of TNFa-induced NFkB p65 translocation, primary screen, imaging, HUVEC, MLSMR starter and 10KST1 sets (AID 438);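 further: compound added about 3h40 before a 20 min TNFalpha stimulation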
# experimental.setup: HUVEC TNFa-induced p65 nuclear translocation; measured here: nuclei count (cytotoxicity indicator), at 2.08 µM
Below is a list of entries, each paired with its recorded cell count value.
Just the number, please, no unit attached.

Here is how some compounds turned out for cell count.
Data request: Return reported cell count. Input compound: Cc1c(C(=O)NCc2ccccc2)oc2c1C(=O)CCC2
Data returned: 530

Data request: Return the recorded cell count value; entry: CC1(C)CC(=O)C=C(Nc2ccc(OCC(F)(F)C(F)F)cc2)C1
Data returned: 362

Data request: Dear colleague, please send me the reported cell count for CCOc1ccccc1N(CC(=O)NC1CCCC1)C(=O)CCCC(=O)Nc1ccccn1 when you can.
Data returned: 369

Data request: Indicate the recorded cell count value for this compound: COc1cccc(NC(=O)C2CCCN2C(=O)Nc2cccc(F)c2)c1 (centres undefined)
Data returned: 584

Data request: Please look at this compound and report its cell count: CCN1CCCC1CNC(=O)c1cc2c(=O)n(C)c3ccccc3c2n1C (centres undefined)
Data returned: 656

Data request: Name the recorded cell count of the item COc1cc(-n2nc(C)c3c2OC(N)=C(C#N)C3c2ccccc2)c(Cl)c(Br)c1O (centres undefined) in your answer.
Data returned: 490

Data request: Write down cell count measured for item Cc1oc(-c2ccc(Cl)cc2)nc1CS(=O)CC(=O)NCCCN(C)C1CCCCC1 (centres undefined)
Data returned: 584

Data request: Read the entry Cc1ccccc1-n1c(Cn2c(=O)sc3ccccc32)nnc1SCC(N)=O and write its reported cell count.
Data returned: 542

Data request: Please list cell count recorded for the compound CCOC(=O)C(NC(=O)c1ccccc1)(Nc1cc(C)on1)C(F)(F)F (centres undefined)
Data returned: 379

Data request: Specify reported cell count for the compound shown: O=C(NC1CCCCC1)n1c(=O)oc2ccc(Cl)cc21
Data returned: 666

***
Data request: Identify measured cell count associated with CC1(C)CC(=O)C(C=Nc2ccc3c(c2)OCO3)=C(O)C1
Data returned: 329

Data request: State, in one line, measured cell count of O=C(CSc1nnc(-c2ccccc2F)o1)OCc1ccccc1
Data returned: 323

Data request: Entry Cc1nnc(NC(=O)c2ccco2)s1 needs its cell count filled in; supply it.
Data returned: 697

Data request: Input O=C(NCc1cccnc1)c1ccc2c(c1)OCO2 , output reported cell count.
Data returned: 415

Data request: For the compound Cc1cc(NC(=O)COc2cccc(Oc3ccccc3)c2)no1 , give its measured cell count value.
Data returned: 327
